Assign pIC50 to each entry below.
Please keep in mind that pIC50 is minus log10 of the molar concentration; only the number is needed.

Exam item: Give ETB (Rattus norvegicus) pIC50 for COc1ccc(C2=C(Cc3ccc(Cl)c(Cl)c3)C(O)(c3ccc(Cl)cc3)OC2=O)cc1OC (racemic)
Marked response: 4.89

Exam item: Give ETB (Rattus norvegicus) pIC50 for CN(C)c1ccc(CC2=C(c3ccc(Cl)c(Cl)c3)C(=O)OC2(O)c2ccc(Cl)cc2)cc1 (stereo not shown)
Marked response: 5.39

Exam item: Give ETB (Rattus norvegicus) pIC50 for COc1ccc(CC2=C(c3ccc(OC)c(OC)c3)C(=O)OC2(O)c2ccc(Cl)cc2)cc1OC (racemic)
Marked response: 5.01

Exam item: Give ETB (Rattus norvegicus) pIC50 for CN(C)c1ccc(C2=C(Cc3ccc4c(c3)OCO4)C(O)(c3ccc(Cl)cc3)OC2=O)cc1 (racemic)
Marked response: 4.74

meta.source: patent US5691373A
